Tested on: Mast/stem cell growth factor receptor Kit (Homo sapiens), P10721 [V560G]
Sequence (P10721 whole entry V560G): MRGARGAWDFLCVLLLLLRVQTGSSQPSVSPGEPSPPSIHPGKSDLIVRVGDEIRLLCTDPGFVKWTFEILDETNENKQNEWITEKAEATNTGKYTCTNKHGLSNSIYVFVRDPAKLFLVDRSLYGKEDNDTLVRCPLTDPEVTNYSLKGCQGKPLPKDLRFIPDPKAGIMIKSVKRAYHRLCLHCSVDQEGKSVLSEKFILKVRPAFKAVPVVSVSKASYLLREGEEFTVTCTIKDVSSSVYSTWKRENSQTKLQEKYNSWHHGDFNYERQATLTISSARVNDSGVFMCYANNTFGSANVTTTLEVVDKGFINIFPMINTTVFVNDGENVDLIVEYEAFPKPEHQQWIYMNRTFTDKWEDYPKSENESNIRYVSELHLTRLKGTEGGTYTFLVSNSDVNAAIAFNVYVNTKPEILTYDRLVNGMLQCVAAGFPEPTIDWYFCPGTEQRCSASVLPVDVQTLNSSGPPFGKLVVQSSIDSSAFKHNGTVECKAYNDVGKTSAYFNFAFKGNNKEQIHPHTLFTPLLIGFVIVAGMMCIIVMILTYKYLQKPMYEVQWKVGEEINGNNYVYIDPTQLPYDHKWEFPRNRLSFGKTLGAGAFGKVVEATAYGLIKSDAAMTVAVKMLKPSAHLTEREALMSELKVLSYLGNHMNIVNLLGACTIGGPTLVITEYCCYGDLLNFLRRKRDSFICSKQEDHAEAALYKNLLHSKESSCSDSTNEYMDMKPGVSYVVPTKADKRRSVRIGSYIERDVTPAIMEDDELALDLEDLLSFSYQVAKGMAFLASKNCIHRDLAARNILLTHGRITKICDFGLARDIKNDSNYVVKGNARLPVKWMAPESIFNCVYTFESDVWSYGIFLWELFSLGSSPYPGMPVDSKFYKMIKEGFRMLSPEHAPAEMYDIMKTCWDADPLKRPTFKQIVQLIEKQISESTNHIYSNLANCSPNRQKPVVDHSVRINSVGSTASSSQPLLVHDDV
Conditions: at 0.1 µM
recorded endpoint: inhibition
Number plus unit, in that order.

>  <chem smiles>
COc1ccc(-c2cc3c(N)ncnc3o2)cc1

>  <inhibition>
4.17%

$$$$
>  <chem smiles>
[O-][S+]1CCN(Cc2ccc(-c3ccc4ncnc(Nc5ccc(OCc6cccc(F)c6)c(Cl)c5)c4c3)o2)CC1

>  <inhibition>
-2.67%

$$$$
>  <chem smiles>
CCCN(CCS(C)(=O)=O)Cc1ccc(-c2ccc3ncnc(Nc4ccc(OCc5cccc(F)c5)c(Cl)c4)c3c2)o1

>  <inhibition>
1.8%

$$$$
>  <chem smiles>
FC(F)(F)c1cccc(-c2nn3ncccc3c2-c2ccnc(Nc3ccc4c(c3)OCCO4)n2)c1

>  <inhibition>
-1%

$$$$

API: the following record is the query input.
Input: // returns reported inhibition for input `CN1CCC(n2cnc(-c3ccc(F)cc3)c2-c2ccnc(N)n2)CC1`
Output: -0.68%

====

System: Tyrosine-protein kinase ABL1 (Homo sapiens), P00519 [M351T]
Details: at 0.1 µM
recorded endpoint: inhibition (%)
Field format: number, assumed %, no unit text.

Check out these entries, answers already filled in.
>  <chem smiles>
NS(=O)(=O)c1ccc(N/N=C2\C(=O)Nc3ccc4ncccc4c32)cc1

>  <inhibition, %>
9.67

$$$$
>  <chem smiles>
COc1cc(Nc2nccc(Nc3ccc4c(C)n[nH]c4c3)n2)cc(OC)c1OC

>  <inhibition, %>
28.9

$$$$
>  <chem smiles>
COc1cc(N2CCN(C(C)C)CC2)ccc1Nc1nc(Nc2ccc(F)cc2C(N)=O)c2cc[nH]c2n1

>  <inhibition, %>
1.19

$$$$
>  <chem smiles>
Nc1nc(-c2cccc(Cl)c2)c(-c2ccc3ncccc3n2)s1

>  <inhibition, %>
3.37

$$$$

Input: // returns reported inhibition for input `CCn1cc(-c2ccnc3[nH]ccc23)c(-c2cccc(NC(=O)Nc3ccc(OCc4ccccc4)cc3)c2)n1`
Output: 1.36

Input: // returns reported inhibition for input `CNC(=O)c1cncc(/C=C/c2ccccc2Cl)c1`
Output: 3.34

====

Target: Phosphatidylinositol 4-kinase beta (Homo sapiens) (UniProt Q9UBF8);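 note: values are mean percent inhibition of PI4K-beta activity, averaged over replicate measurements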
Sequence (Q9UBF8 2-816 limits assumed): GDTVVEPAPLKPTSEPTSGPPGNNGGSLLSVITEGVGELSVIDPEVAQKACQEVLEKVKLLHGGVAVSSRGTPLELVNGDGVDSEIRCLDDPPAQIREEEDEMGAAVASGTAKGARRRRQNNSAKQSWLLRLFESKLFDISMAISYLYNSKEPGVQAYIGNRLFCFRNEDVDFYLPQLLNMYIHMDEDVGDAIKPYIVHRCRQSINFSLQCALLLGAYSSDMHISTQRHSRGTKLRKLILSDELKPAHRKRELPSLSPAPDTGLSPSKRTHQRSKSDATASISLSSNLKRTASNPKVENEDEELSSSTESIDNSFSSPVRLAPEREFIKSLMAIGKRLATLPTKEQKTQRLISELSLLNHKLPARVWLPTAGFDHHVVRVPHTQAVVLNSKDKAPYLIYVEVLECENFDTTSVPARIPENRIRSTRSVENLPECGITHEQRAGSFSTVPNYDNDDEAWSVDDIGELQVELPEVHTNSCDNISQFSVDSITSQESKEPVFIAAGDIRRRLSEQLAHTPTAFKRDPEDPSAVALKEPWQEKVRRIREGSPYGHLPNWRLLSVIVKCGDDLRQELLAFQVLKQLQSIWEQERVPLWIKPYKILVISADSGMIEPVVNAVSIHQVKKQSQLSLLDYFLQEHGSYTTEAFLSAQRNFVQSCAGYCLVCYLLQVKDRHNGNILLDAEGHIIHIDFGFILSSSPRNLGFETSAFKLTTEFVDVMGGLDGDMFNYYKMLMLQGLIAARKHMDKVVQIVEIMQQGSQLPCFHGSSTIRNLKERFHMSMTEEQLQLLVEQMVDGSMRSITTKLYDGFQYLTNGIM
Conditions: at 1 µM
recorded endpoint: inhibition (%)
Field format: number, assumed %, no unit text.

>  <chem smiles>
NC(=O)c1sc(-n2cnc3ccc(C(F)(F)F)cc32)cc1OCc1ccccc1Br

>  <recorded endpoint>
inhibition

>  <unit tag>
%

>  <measured>
-2.08

$$$$

Input: // returns reported inhibition for input `Fc1ccc(-c2nn3ncccc3c2-c2ccnc(Nc3ccc4c(c3)OCCO4)n2)cc1`
Output: -0.74

Input: // returns reported inhibition for input `COc1ccc2[nH]c3c4[nH]c5ccc(OC)cc5c4c4c(c3c2c1)C(=O)NC4=O`
Output: -0.12

Input: // returns reported inhibition for input `COc1cc(N2CCN(C(C)C)CC2)ccc1Nc1nc(Nc2ccc(F)cc2C(N)=O)c2cc[nH]c2n1`
Output: -1.98

Input: // returns reported inhibition for input `CNC(=O)c1cc(-c2ccc(F)cc2)cc(-c2ccc(S(=O)(=O)N3CCCC3)cc2)c1N`
Output: 1.93

Input: // returns reported inhibition for input `COc1ccc(-c2cc(-c3c[nH]nc3-c3ccccn3)ccn2)cc1`
Output: 2.14

Input: // returns reported inhibition for input `O=C(Nc1n[nH]c2cc(-c3ccc(F)cc3)ccc12)C1CC1`
Output: -2.55

Input: // returns reported inhibition for input `COc1cc(Nc2nccc(Nc3ccc4c(C)n[nH]c4c3)n2)cc(OC)c1OC`
Output: 4.89

Input: // returns reported inhibition for input `COC(=O)Nc1nc2ccc(Oc3ccc(NC(=O)Nc4cccc(Cl)c4)cc3)cc2[nH]1`
Output: -4.1

Input: // returns reported inhibition for input `COc1ccc(CNC(=O)c2ccc(-c3cc(-c4nnc(C)o4)ccc3C)cc2)cc1`
Output: 0.88

====

Target: Muscle, skeletal receptor tyrosine-protein kinase (Homo sapiens) (UniProt O15146);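 note: values are mean inhibition of MuSK from the GSK PKIS kinase screening panel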
Sequence (whole entry): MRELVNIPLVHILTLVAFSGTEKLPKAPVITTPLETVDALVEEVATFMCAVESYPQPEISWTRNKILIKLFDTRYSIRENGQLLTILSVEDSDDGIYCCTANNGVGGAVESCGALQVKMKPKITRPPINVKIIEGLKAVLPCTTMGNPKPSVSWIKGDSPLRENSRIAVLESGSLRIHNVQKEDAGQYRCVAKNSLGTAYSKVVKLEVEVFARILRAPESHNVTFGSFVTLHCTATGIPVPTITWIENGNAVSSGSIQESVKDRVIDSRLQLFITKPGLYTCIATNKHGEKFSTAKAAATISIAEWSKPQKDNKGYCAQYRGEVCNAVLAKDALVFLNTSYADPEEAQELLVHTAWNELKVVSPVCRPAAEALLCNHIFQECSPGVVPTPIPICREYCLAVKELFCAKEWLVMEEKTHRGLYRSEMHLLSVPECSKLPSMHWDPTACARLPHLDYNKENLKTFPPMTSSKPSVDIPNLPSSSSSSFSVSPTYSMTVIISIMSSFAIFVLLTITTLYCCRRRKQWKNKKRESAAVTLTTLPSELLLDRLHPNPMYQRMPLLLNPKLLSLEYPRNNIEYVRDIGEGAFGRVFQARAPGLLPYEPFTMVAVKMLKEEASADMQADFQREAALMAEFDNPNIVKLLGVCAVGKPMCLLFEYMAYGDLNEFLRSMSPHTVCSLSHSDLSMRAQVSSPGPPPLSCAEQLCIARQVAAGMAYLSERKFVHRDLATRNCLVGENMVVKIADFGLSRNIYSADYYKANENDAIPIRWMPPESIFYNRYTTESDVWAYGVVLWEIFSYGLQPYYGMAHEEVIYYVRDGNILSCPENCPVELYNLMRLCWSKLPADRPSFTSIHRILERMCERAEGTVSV
Conditions: at 0.1 µM
recorded endpoint: inhibition (%)
Field format: number, assumed %, no unit text.

Input: // returns reported inhibition for input `Nc1ncc(-c2cccc(S(N)(=O)=O)c2)c2scc(-c3ccc(F)c(Cl)c3)c12`
Output: 2.5

Input: // returns reported inhibition for input `COc1ccc(CNC(=O)c2ccc(-c3cc(-c4nnc(C)o4)ccc3C)cc2)cc1`
Output: 3.25

Input: // returns reported inhibition for input `O=S(=O)(CCNCc1ccc(-c2ccc3ncnc(Nc4ccc(OCc5cccc(F)c5)c(Cl)c4)c3c2)o1)c1ccccc1`
Output: 6.83

Input: // returns reported inhibition for input `Fc1cccc(COc2ccc(Nc3ncnc4sc(-c5ccco5)cc34)cc2Cl)c1`
Output: 4.4

Input: // returns reported inhibition for input `COc1cc2c(cc1Nc1nc(Nc3ccsc3C(N)=O)c3cc[nH]c3n1)N(C(=O)CN(C)C)CCC2(C)C`
Output: 14.8

Input: // returns reported inhibition for input `CCn1c(-c2nonc2N)nc2c(C#CC(C)(C)O)ncc(OC3CCNCC3)c21`
Output: 3.1

Input: // returns reported inhibition for input `Cc1cccc2c1NC(=O)/C2=N\Nc1ccc(S(N)(=O)=O)cc1`
Output: 2.77

====

Molecular target: Casein kinase I isoform gamma-2 (Homo sapiens) (UniProt P78368);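 note: values are mean inhibition figures reported as part of the GSK PKIS dataset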
Sequence (P78368 whole entry, looked up, canonical isoform): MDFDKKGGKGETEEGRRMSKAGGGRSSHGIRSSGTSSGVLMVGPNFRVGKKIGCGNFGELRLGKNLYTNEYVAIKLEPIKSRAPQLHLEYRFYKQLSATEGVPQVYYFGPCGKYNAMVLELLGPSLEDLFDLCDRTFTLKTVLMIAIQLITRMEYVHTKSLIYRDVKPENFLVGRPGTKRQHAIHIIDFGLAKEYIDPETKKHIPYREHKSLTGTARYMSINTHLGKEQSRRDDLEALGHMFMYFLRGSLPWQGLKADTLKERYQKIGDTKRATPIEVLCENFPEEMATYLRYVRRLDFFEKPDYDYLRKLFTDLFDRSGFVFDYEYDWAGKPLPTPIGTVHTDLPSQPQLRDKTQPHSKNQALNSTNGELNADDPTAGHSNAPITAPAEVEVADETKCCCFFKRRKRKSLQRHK
Conditions: at 0.1 µM
Readings of inhibition for the listed molecules
Field format: number, assumed %, no unit text.

Check out these entries, answers already filled in.
>  <molecule>
CNC(=O)c1cncc(/C=C/c2ccccc2Cl)c1

>  <unit tag>
%

>  <inhibition>
0.91

$$$$
>  <molecule>
c1cc(-c2cnn3nc(N4CCOCC4)ccc23)nc(NC2CC2)n1

>  <unit tag>
%

>  <inhibition>
3.35

$$$$
>  <molecule>
Fc1ccc(-c2nn3ccccc3c2-c2ccncc2)cc1

>  <unit tag>
%

>  <inhibition>
1.65

$$$$

Input: // returns reported inhibition for input `COc1ccc2[nH]c3c4[nH]c5ccc(OC)cc5c4c4c(c3c2c1)C(=O)NC4=O`
Output: 2.32

Input: // returns reported inhibition for input `CS(=O)(=O)CCNCc1ccc(-c2ccc3ncnc(Nc4ccc(OCc5ccccc5)c(C(F)(F)F)c4)c3c2)o1`
Output: 3.82

Input: // returns reported inhibition for input `Fc1cccc(COc2ccc(Nc3ncnc4sc(-c5ccco5)cc34)cc2Cl)c1`
Output: 4.05

Input: // returns reported inhibition for input `CCn1c(-c2nonc2N)nc2c(C#CC(C)(C)O)ncc(OC3CCNCC3)c21`
Output: 2.46

Input: // returns reported inhibition for input CC1=C(C(=O)Nc2cc(Cl)c3[nH]ncc3c2)C(c2ccc(C(F)(F)F)cc2)CC(=O)N1 (centres undefined)
Output: 2.31

Input: // returns reported inhibition for input `CCN1CCC(CC(=O)Nc2n[nH]c3nnc(-c4cccc(F)c4F)cc23)CC1`
Output: -0.21

====

Target: 5'-AMP-activated protein kinase catalytic subunit alpha-1 (Homo sapiens);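 note: enzyme tested as the AMPK alpha1 beta1 gamma1 complex, values reported as mean percent inhibition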
Details: at 0.1 µM
Description: GSK_PKIS: AMPKA1 (A1B1G1) mean inhibition at 0.1 uM [Nanosyn]
recorded endpoint: inhibition (%)
Field format: number, assumed %, no unit text.

>  <chem smiles>
Cc1cccc2c1NC(=O)/C2=N\Nc1ccc(S(N)(=O)=O)cc1

>  <unit tag>
%

>  <inhibition>
2.8

$$$$
>  <chem smiles>
CNC(=O)c1cc(-c2ccc(F)cc2)cc(-c2ccc(S(=O)(=O)N3CCCC3)cc2)c1N

>  <unit tag>
%

>  <inhibition>
1.77

$$$$

Input: // returns reported inhibition for input `NS(=O)(=O)c1ccc(Nc2ncc(-c3ccccc3)o2)cc1`
Output: 4.14

Input: // returns reported inhibition for input `CCn1c(-c2nonc2N)nc2c(C#CC(C)(C)O)ncc(OC3CCNCC3)c21`
Output: 40.5

Input: // returns reported inhibition for input `COc1cccc(-n2ncc3c(N/N=C/c4ccc(F)cc4)ncnc32)c1`
Output: 3.38

Input: // returns reported inhibition for input `COC(=O)Nc1nc2ccc(S(=O)(=O)c3ccc(NC(=O)Nc4cc(C(F)(F)F)ccc4F)cc3)cc2[nH]1`
Output: 1.79

Input: // returns reported inhibition for input `FC(F)(F)c1cccc(-c2nn3ncccc3c2-c2ccnc(Nc3ccc4c(c3)OCCO4)n2)c1`
Output: 1.41

Input: // returns reported inhibition for input `c1cc(-c2cnn3nc(N4CCOCC4)ccc23)nc(NC2CC2)n1`
Output: 4.11

Input: // returns reported inhibition for input `CCn1c(-c2nonc2N)nc2c(C#CC(C)(C)O)nc(OC[C@H](N)c3ccccc3)cc21`
Output: 17.7

Input: // returns reported inhibition for input `CCn1c(-c2nonc2N)nc2ccccc21`
Output: 3.06

Input: // returns reported inhibition for input `N#Cc1c(NC(=O)CN2CCOCC2)sc2c1CCCC2`
Output: 3.31

Input: // returns reported inhibition for input `Cc1ccc(O)cc1Nc1ccnc2cc(-c3ccccn3)ccc12`
Output: 4.22
